# tgt: CPSF-160;WDR33;CPSF-30;Fip1 (human;human;human;human, UniProt Q10570;Q9C0J8;O95639;Q6UN15 1-1443;1-425;1-269;159-200, |||)
# Sequence (Q10570 whole entry, chain 1 of 4): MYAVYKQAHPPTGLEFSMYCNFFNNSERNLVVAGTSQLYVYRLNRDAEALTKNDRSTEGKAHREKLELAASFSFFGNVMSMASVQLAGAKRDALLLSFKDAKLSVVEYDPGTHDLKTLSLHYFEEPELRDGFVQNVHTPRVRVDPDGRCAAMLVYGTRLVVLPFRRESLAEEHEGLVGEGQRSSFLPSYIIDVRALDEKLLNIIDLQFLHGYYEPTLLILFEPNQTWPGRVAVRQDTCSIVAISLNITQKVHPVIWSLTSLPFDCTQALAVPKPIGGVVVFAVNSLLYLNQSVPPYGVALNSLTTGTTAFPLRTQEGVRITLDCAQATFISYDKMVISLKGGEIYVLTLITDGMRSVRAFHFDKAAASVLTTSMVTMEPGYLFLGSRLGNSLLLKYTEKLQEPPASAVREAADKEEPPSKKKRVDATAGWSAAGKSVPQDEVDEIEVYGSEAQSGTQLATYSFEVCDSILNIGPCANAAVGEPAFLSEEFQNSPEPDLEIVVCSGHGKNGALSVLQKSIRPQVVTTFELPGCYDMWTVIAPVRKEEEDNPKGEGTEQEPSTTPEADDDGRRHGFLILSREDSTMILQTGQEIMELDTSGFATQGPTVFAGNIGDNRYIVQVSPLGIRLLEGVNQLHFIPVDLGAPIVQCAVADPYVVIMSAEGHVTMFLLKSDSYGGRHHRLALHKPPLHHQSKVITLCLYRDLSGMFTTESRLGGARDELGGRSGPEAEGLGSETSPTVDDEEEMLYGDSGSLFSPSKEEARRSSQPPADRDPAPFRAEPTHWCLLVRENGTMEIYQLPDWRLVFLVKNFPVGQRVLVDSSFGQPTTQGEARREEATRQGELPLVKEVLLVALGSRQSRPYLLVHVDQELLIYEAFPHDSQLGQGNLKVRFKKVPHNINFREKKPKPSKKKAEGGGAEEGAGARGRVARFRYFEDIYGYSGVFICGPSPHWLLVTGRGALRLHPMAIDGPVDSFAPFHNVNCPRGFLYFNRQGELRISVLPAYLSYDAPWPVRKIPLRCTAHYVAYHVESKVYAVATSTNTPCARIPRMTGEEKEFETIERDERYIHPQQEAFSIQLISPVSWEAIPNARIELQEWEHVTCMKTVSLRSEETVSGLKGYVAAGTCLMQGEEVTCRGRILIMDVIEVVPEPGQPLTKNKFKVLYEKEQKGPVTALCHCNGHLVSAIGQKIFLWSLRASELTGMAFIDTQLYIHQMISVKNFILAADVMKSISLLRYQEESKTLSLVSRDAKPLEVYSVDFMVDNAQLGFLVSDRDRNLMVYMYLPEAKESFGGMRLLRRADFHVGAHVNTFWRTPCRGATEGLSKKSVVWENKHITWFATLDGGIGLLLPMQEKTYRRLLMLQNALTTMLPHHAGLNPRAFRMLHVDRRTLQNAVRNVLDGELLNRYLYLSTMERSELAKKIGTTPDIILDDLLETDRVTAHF
# Sequence (Q9C0J8 1-425, chain 2 of 4): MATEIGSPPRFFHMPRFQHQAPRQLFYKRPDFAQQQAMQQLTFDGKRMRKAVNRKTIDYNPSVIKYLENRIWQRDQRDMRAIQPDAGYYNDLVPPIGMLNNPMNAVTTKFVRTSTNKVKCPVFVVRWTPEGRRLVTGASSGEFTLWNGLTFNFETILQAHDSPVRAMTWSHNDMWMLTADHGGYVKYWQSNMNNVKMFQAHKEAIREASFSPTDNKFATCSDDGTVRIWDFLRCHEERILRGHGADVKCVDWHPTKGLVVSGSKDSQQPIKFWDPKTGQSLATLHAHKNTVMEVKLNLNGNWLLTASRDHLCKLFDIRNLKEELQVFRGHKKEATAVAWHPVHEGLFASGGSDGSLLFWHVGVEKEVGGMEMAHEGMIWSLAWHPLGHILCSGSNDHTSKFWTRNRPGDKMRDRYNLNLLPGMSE
# Sequence (O95639 whole entry, chain 3 of 4): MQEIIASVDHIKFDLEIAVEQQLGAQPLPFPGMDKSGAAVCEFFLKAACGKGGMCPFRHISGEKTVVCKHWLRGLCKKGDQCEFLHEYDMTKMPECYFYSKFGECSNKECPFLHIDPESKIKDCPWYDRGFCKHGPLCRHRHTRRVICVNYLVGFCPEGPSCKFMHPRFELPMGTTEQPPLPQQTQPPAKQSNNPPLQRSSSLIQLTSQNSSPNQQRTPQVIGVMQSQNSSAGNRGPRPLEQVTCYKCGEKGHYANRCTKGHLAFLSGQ
# Sequence (Q6UN15 159-200, chain 4 of 4): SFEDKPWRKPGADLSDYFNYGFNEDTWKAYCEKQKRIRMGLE
# measurement.description: competition fluorescence polarization
readout.type: pKd
Reminder that pKd is minus the log10 of a molar concentration.

Would you mind telling me what pKd value was observed for CAAUAAAC (ssRNA) [8-mer AAUAAA, unlabeled] ? 7.24

Just for reference, paper PMC6859858 is where these values come from.
